Hey, just so you know, these numbers are from ChEMBL document CHEMBL1150767.

test: Inhibition of haemozoin formation at pH 5.6 after 18 hrs; assay type: functional
Readout Kind: IC50

CCN(CC)CCCCNc1ccnc2cc(Cl)ccc12; 12 µM
CCN(CC)CCCCSc1ccnc2cc(Cl)ccc12; 155 µM
CCN(CC)CCCCOc1ccnc2cc(Cl)ccc12; > 1000 µM
CCN(CC)CCCC(CCCN(CC)CC)Oc1ccnc2cc(Cl)ccc12; 687 µM

Recorded result, CCN(CC)CCCC(C)Nc1ccnc2cc(Cl)ccc12 (stereo not given) , IC50: 16 µM

###

I'd appreciate it if you could supply Ratio IC50 values for the items below.
test system: Plasmodium falciparum; experiment: Selectivity for chloroquine-resistant Plasmodium falciparum K1 over chloroquine-sensitive Plasmodium falciparum NF54 as IC50 ratio by [3H]hypoxanthine uptake; assay type: functional
Give bare numbers.

Consider the reported Ratio IC50 for these compounds:
CCN(CC)CCCNc1ccnc2cc(Cl)ccc12; 3.33
CCNCCCNc1ccnc2cc(Cl)ccc12; 24.3
CCN(CC)CCNc1ccnc2cc(Cl)ccc12; 2.33

Okay, next one:
Memo: `CCNCCNc1ccnc2cc(Cl)ccc12` , reported Ratio IC50: 1.25
